- Experiment Notes: bacterial viability reduction in E. coli – absorbance, OD600, counter-screen for AddAB inhibitor project, primary screen (AID 449728);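 further: uninfected addAB+ strain grown without phage in ampicillin broth; 0% = DMSO wells and 100% = ciprofloxacin 0.95 µg/ml wells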
- Assay Context: E. coli V3065 growth, 18 h, at 11.9 µM, active compounds read high
Screen size: about 330,000 compounds; about 900 (0.27%) were called active. Many of the other results were omitted from the sample, so actives are more common in it than they were.
Quantity Name: inhibition (%)
Write the value in % as a bare number.

- Compound: "COc1cccc(-c2sc3ccc(OC)cc3c2-c2ccc(OCCN3CCCCC3)cc2)c1"
  Measure Unit: "%"
  Numeric Result: -0.53

**Query** Answer with the recorded inhibition of Oc1cccc(/C=N/Nc2ccc(Cl)nn2)c1O only.
**Result** 19.4

**Query** Look up inhibition of COCCn1c(SCC(=O)Nc2cc(OC)ccc2OC)nc2c(c1=O)SC(C)C2 (stereo unspecified) and report it.
**Result** -0.66

**Query** Report measured inhibition; entry is COCCCNC(=O)C1CCC(CNS(=O)(=O)c2ccc(OC)cc2)CC1 (stereo unspecified)
**Result** -1.01

----------
- Experiment Notes: bacterial viability reduction in E. coli – absorbance, OD600, counter-screen for AddAB inhibitor project, primary screen (AID 449728);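 further: uninfected addAB+ strain grown without phage in ampicillin broth; 0% = DMSO wells and 100% = ciprofloxacin 0.95 µg/ml wells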
- Assay Context: E. coli V3065 growth, 18 h, at 11.9 µM
Out of some 330,000 compounds screened, about 900 (0.27%) were called active.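 The calls were made as follows: active = inhibition above the campaign's mean inhibition across all tested compounds plus 3 SD (cut at about 9.9% in these data); inactive = the rest.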 The entries come from a sample that favours actives as a whole.
Choose the fitting class; nothing outside t = active, f = inactive is accepted.

Before answering, review these 3 worked examples.
- Compound: "O=C(NC(=S)Nc1ncccn1)c1ccccc1Br"
  Class Assignment: "f"
- Compound: "Cc1cc(C(=O)N/N=C/c2ccccn2)c2ccccc2n1"
  Class Assignment: "f"
- Compound: "COC(=O)CSc1nc2c(c(C3CC=CCC3)c1C#N)CCC2 (stereo not drawn)"
  Class Assignment: "f"

**Query** Identify the outcome logged in this assay for the compound shown: COc1cc(OC)cc(-c2c(C#Cc3ccsc3)c3cc(-c4ccc(SC)cc4)ccc3n2C)c1
**Result** f

**Query** Could you kindly confirm the outcome this assay logged for CC(C)(C)NC(=O)COC(=O)c1cc(Cl)ccc1[N+](=O)[O-] ?
**Result** t

**Query** Look up the recorded call for COc1ccc(C(=O)c2c3ccc([N+](=O)[O-])cc3[n+]([O-])n2CCCN)cc1 in this test.
**Result** t

**Query** How was Cc1nn2c3cc(N4CCOCC4)ccc3nc2c2ccccc12 classified in this test?
**Result** f

**Query** Look up the recorded call for C/C(CC(C)C)=N\Oc1nc(C)cc(C)n1 in this test.
**Result** f

**Query** Tell me the assay call for O=C(O)C(c1ccccc1)N1C(=O)/C(=C\c2ccc(-c3cccc(Cl)c3)o2)SC1=S (stereo not drawn) please.
**Result** f

**Query** Could you kindly confirm the outcome this assay logged for CC1CC(C)CN(CCC(=O)Nc2ccc3c(c2)CCC3)C1 (stereo not drawn) ?
**Result** f

**Query** Record request — test call for COc1ccc(C(=O)NCC(=O)N/N=C/c2ccc([N+](=O)[O-])o2)cc1OC
**Result** f

**Query** What outcome does the record of this test show for C=CCn1c(SCC(N)=O)nnc1-c1cc2c(s1)CCC(CC)C2 (stereo not drawn) ?
**Result** f

**Query** Query: recorded result category for C/C(N)=C(/C#N)C(=O)COC(=O)C1CCN(C(=O)c2ccc(Cl)cc2)CC1 in this test
**Result** f

**Query** Give the logged outcome of this assay for the following compound: O=C(CC(O)(C(F)(F)F)C(F)(F)F)Nc1ccc(Cl)c(Cl)c1
**Result** t

**Query** Which outcome did this test record for the compound CC(=O)Nc1ccc(NC(=O)COc2ccc(S(=O)(=O)NC(C)c3ccccc3)cc2)cc1 (stereo not drawn) ?
**Result** f

**Query** Please share the test call associated with C[N+]1(CCNC(=O)/C=N/O)CCCCC1 .
**Result** f

**Query** Record lookup: outcome of this test for COC(=O)N/N=C/c1cn(CCCOc2ccc(C)cc2)c2ccccc12 ?
**Result** f

**Query** Answer briefly: the call reported for COc1ccc(C(=O)CC(=O)C(=O)Nc2cc([N+](=O)[O-])ccc2OC)cc1 in this assay.
**Result** f

**Query** Dear all, I need the recorded test outcome for Cc1cnc(C(=O)OCC(=O)NCCCc2ccccc2)cn1 , thank you.
**Result** f

----------
- Experiment Notes: bacterial viability reduction in E. coli – absorbance, OD600, counter-screen for AddAB inhibitor project, primary screen (AID 449728);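 further: uninfected addAB+ strain grown without phage in ampicillin broth; 0% = DMSO wells and 100% = ciprofloxacin 0.95 µg/ml wells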
- Assay Context: E. coli V3065 growth, 18 h, at 11.9 µM, active compounds read high
Hit rate of the full screen: of about 330,000 compounds, about 900 (0.27%) were called active. What follows is part of a selection rich in actives, with near analogues and random picks from the rest.
Recorded inhibition for the following compounds
Your answer is read as %, so omit the unit and give the number.

- Compound: "O=C(CCC(=O)NNc1nc2ccccc2c2nc(-c3ccccc3)nn12)NCCCN1CCCC1=O"
  inhibition, %: -1.57
- Compound: "CSCCC(NS(=O)(=O)/C=C/c1ccccc1)C(=O)N1CCC(C)CC1 (stereo unspecified)"
  inhibition, %: -0.42
- Compound: "O=C(NCC1CCCO1)C(C(=O)c1ccccc1)n1cc(Cl)ccc1=O (stereo unspecified)"
  inhibition, %: 96.6
- Compound: "CC1CC(C)CN(CCOc2cccc3ccccc23)C1 (stereo unspecified)"
  inhibition, %: 0.17
- Compound: "CCCCCOc1ccc(CSC2=NCCN2)cc1[N+](=O)[O-]"
  inhibition, %: 0.17

**Query** Tell me inhibition reported for O=C(NCC1CCCO1)/C(=C/c1ccc(Cl)cc1)NC(=O)c1ccccc1 (stereo unspecified)
**Result** 0.6

**Query** Given CSC(=S)N/N=C/c1c[nH]c2ccccc12 , respond with its inhibition.
**Result** 12.8

**Query** Tell me inhibition reported for Brc1ccc(/C=N/N2CCN(C3c4ccccc4-c4ccccc43)CC2)s1
**Result** 0.91

**Query** Recall and state the measured inhibition for O=C(O)c1cccc(NC(=S)N/N=C/c2c[nH]c3ccccc23)c1 .
**Result** 0.08

**Query** Specify inhibition for CCN(CC)c1ccc(NC(=O)CN2CCN(c3ccccn3)CC2)cc1 and stop.
**Result** 10.5

**Query** Consider the compound COc1ccccc1NC(=S)N1CCN(c2ccc(F)cc2)CC1 and give its recorded inhibition.
**Result** -1.81

**Query** Consider the compound O=C(CN1C(=O)COc2ccc(Cl)cc21)N1CCOCC1 and give its recorded inhibition.
**Result** 1.26

**Query** Answer with the recorded inhibition of CC(C)C(C(=O)NCc1ccco1)N(CC1CCCO1)C(=O)CNS(=O)(=O)c1ccc(F)cc1 (stereo unspecified) only.
**Result** 0.85

**Query** Provide only the value of recorded inhibition for O=C(CSc1ccc(-c2ccccc2)nn1)NCC1CCCO1 (stereo unspecified)
**Result** 0.59

**Query** Complete the entry with inhibition for N#Cc1c(-c2ccc(F)cc2)cc(C2CC2)nc1SCC(=O)c1cccs1
**Result** -0.26

**Query** Report inhibition for CCOC(=O)c1nnn2c1nc(N1CCN(c3ccccc3)CC1)c1ccccc12
**Result** 1.28

----------
- Experiment Notes: bacterial viability reduction in E. coli – absorbance, OD600, counter-screen for AddAB inhibitor project, primary screen (AID 449728);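 further: uninfected addAB+ strain grown without phage in ampicillin broth; 0% = DMSO wells and 100% = ciprofloxacin 0.95 µg/ml wells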
- Assay Context: E. coli V3065 growth, 18 h, at 11.9 µM
Hit rate of the full screen: of about 330,000 compounds, about 900 (0.27%) were called active.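 How the source made its calls: active means inhibition above the campaign's mean inhibition across all tested compounds plus 3 SD (cut at about 9.9% in these data); inactive means the rest.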 This is one part of a sample in which actives are shown more often than they occur.
One label from this list, please: active, inactive

- Compound: "COc1cccc(/C=N/Nc2ncc(C(F)(F)F)cc2Cl)c1O"
  Class Assignment: "active"

**Query** Test call for this compound, please: COC(=O)C1=C(C)NC2=C(C(=O)c3ccccc32)C1c1ccc(-c2ccc(C(=O)O)cc2)o1 (stereo not drawn)
**Result** inactive

**Query** Record lookup: outcome of this test for C=CC1=C(C(=O)O)N2C(=O)[C@@H](NC(=O)/C(=N/OCC(=O)O)c3csc(N)n3)[C@H]2SC1 ?
**Result** active

**Query** Outcome logged for COc1cc(C(=O)NC(=S)NCc2ccco2)cc(OC)c1OC in this assay:
**Result** active

**Query** Assay result, entry CCCS(=O)(=O)Nc1ccc(-c2cn3c(n2)SCC3)cc1 — outcome?
**Result** inactive

**Query** Record request — test call for COc1ccc(OCc2nnc3n2N=C(c2ccccc2)C(CC(=O)O)S3)cc1 (stereo not drawn)
**Result** inactive

**Query** Field: outcome | Entry: O=C1c2ccccc2C2=Nc3ccccc3SC(c3ccccc3F)C12 (stereo not drawn)
**Result** active

**Query** Called result for COc1ccc(CC(=O)Nc2c(C(N)=O)oc3ccccc23)cc1
**Result** inactive

**Query** Assay outcome for C=CCn1c(=O)c(C(=O)NCc2ccc3c(c2)OCO3)c(O)c2ccccc21 : what was it?
**Result** active
